# Test system: BDF1 mice, P388 leukemia ip, median survival T/C
# TEST_DETAILS: NCI In Vivo Anticancer Drug Screen. Data for tumor model P388 Leukemia (intraperitoneal) in B6D2F1 (BDF1) mice
# STUDY_CONDITIONS: endpoint: median survival time; dose: 200.0 mg/kg/injection; schedule: Q01DX009 (ip); vehicle: saline with Tween-80
Inconclusive results and toxic doses are left out. The calls were made as follows: active = survival T/C of 150% or more; inactive = T/C below 125% in these data.
Form entry, call: pick from active, inactive

Request: State the result this test recorded for CC(C(Cl)c1ccccc1)S(=O)c1ccccc1 (centres undefined) .
Response: inactive

====

# Tested on: BDF1 mice, P388 leukemia ip, median survival T/C
# TEST_DETAILS: NCI In Vivo Anticancer Drug Screen. Data for tumor model P388 Leukemia (intraperitoneal) in B6D2F1 (BDF1) mice
# STUDY_CONDITIONS: endpoint: median survival time; dose: 200.0 mg/kg/injection; schedule: Q04DX003 (ip); vehicle: saline with Tween-80; higher = longer survival
Toxic doses and inconclusive results are not listed.
QUANTITY_MEASURED: T/C

These recorded examples may help you get a feel for the data.
> print(dat)
                                   compound      result.value
1                       O=C(c1cccs1)c1cccs1   90 % of control
2  Cc1ccc([N+](=O)[O-])cc1NC(=O)SCCOC(=O)COc1ccc(Cl)cc1Cl  100 % of control
3                           COc1cc(Cl)ccc1C  118 % of control

Request: Give T/C for this entry on BDF1 mice, P388 leukemia ip, median survival T/C: CC(C)c1nc(-c2ccccc2)c(-c2ccccc2)[nH]1
Response: 104 % of control

Request: Give T/C for this entry on BDF1 mice, P388 leukemia ip, median survival T/C: Cc1ccc(NS(=O)(=O)c2ccccc2)nc1
Response: 116 % of control

Request: Give T/C for this entry on BDF1 mice, P388 leukemia ip, median survival T/C: CCOC(=O)CCC(C)(C#N)c1ccccc1 (configuration not stated)
Response: 91 % of control

Request: Give T/C for this entry on BDF1 mice, P388 leukemia ip, median survival T/C: O=c1[nH]c2cc(Cl)c(Cl)cc2o1
Response: 95 % of control

====

Reported T/C values for the following molecules.
# Tested on: BDF1 mice, P388 leukemia ip, median survival T/C
# TEST_DETAILS: NCI In Vivo Anticancer Drug Screen. Data for tumor model P388 Leukemia (intraperitoneal) in B6D2F1 (BDF1) mice
# STUDY_CONDITIONS: endpoint: median survival time; dose: 3.13 mg/kg/injection; schedule: Q01DX009 (ip); vehicle: saline with Tween-80; higher = longer survival
Toxic doses and inconclusive results are not listed.

Request: Assign T/C to the following record: O/N=c1\cc(-c2ccccc2)oc2ccccc12
Response: 95 % of control

Request: Assign T/C to the following record: O=[N+]([O-])c1ccc(N=Nc2c(Cl)cc(O)cc2Cl)cc1
Response: 95 % of control

Request: Assign T/C to the following record: N=C(N)c1ccc(-c2ccc(-c3ccc(C(=N)N)cc3)o2)cc1
Response: 111 % of control

Request: Assign T/C to the following record: CC(=O)C1=C(O)C2(O)C(=O)c3c(c(C)c4ccc(C)c(O)c4c3O)CC2C(N)C1=O (stereo not given)
Response: 104 % of control

Request: Assign T/C to the following record: CSc1nc(SC)c2[nH]cnc2n1
Response: 87 % of control
